I'd appreciate it if you could supply TGI values for the items below.
- Tested on: SF-295 CNS
- procedure-summary: NCI tumour cell line growth inhibition, 48 h
Where a SMILES comes first, the peptide text is derived from it. The star is where a group is joined. Fmoc = O=C(OCC1c2ccccc2-c2ccccc21)*; OBn = c1ccc(CO*)cc1; tBu = CC(C)(C)*

Hello, I am looking for reported TGI with SF-295 CNS for COc1cc(-c2ccc[nH]2)[nH]c1/C=C1\N=C(C)C(C(=O)NC(C)C)=C1C . Could you help? 11.4 µM

Item: COc1ccc(Nc2nc(N)c(C(=O)c3ccco3)s2)cc1 > 100 µM

Field entry: COc1ccc(C=C2C(C)=NN(c3cccc(Cl)c3)C23C(Cl)C(=O)N3c2nc3ccccc3s2)cc1 (stereo not given) 50.9 µM

Param item: CN(C)CN(C)c1nc(N(C)C)nc(N(C)C)n1 > 100 µM

What do you get for CC(C)(C)c1cnc(CSc2cnc(NC(=O)C3CCNCC3)s2)o1 ? > 10 µM

Please answer likewise for COc1cc2c(cc1OCCN1CCN(CCOc3cc4c(cc3OC)C(=O)N3CCC[C@H]3C=N4)CC1)N=C[C@@H]1CCCN1C2=O 67.3 µM

CC[P+](c1ccccc1)(N(C)C)N(C)C , same question. > 100 µM

Then what about the compound COc1cc(/C=C/C(=O)/C=C/c2ccc(-n3ccnc3)cc2)ccc1O ? 33 µM

Again, but for C/C(=C\C(=O)O)C(=O)N(C)c1ccccc1I > 100 µM

Also CC(OC(C)(C)C)C(NC(=O)OCC1c2ccccc2-c2ccccc21)C(=O)NC(Cc1ccccc1)C(=O)OCc1ccccc1 (stereo not given) (Fmoc-Thr(tBu)-Phe-OBn; configuration not given here) ? > 100 µM

Another compound to look at: CC1(C)O[C@@H](CCl)C[C@@H](C#N)O1 > 100 µM

And the next one, O=C(c1ccccc1)C1C(c2ccccc2[N+](=O)[O-])N1C1CCCCC1 (stereo not given) ? 35.3 µM

How about this compound: NCC[PH+](c1ccccc1)c1ccccc1.NCC[PH+](c1ccccc1)c1ccccc1.[Cl-].[Pt+4] > 100 µM

Same question, CC(=O)OCCc1cc2ccccc2oc1=O this time > 100 µM

Do the same for COC(=O)c1sc(=S)c2sc(C(=O)OC)c(C(=O)OC)c2c1C(=O)OC please > 100 µM

Another compound: O=C(Cc1csc2nc(-c3ccc(Br)cc3)cn12)N/N=C/c1ccccc1O 9.34 µM

Please do the same for CCOC(=O)C(=O)Nc1nc2ccc(OC)cc2s1 as well. > 100 µM

Same again, this time with CC1=NN(C(=O)CC(=O)Nc2cccc(C)c2)C(=O)C1N=Nc1ccc(C(=O)O)cc1 (stereo not given) > 100 µM

What about this compound? Cc1cc(S(=O)(=O)NC2=NCc3c(F)cccc3N2)c(S)cc1Cl > 100 µM

And what about the compound Clc1ccc(C2=CC(c3ccccc3)N3C(=N[C@H]4CCCC[C@@H]43)N2)cc1 (stereo not given in full) ? 20.3 µM

Follow-up item: COc1ccc(-c2nc3sccn3c2/C=C/C(=O)c2cc(OC)c(OC)c(OC)c2)cc1 18.3 µM

Another: c1ccc2c(c1)ccc1cc3cc(NCCCCNc4ccc5nc6c(ccc7ccccc76)cc5c4)ccc3nc12 3.03 µM

Same again, this time with COc1ccc(C2CC(c3cccc(Nc4ccncc4)c3)=NN2c2ccccc2)cc1 (stereo not given) 3.32 µM

Try the compound c1ccc(CN2CCC(CNc3ncnc4ccccc34)C2)cc1 (stereo not given) > 100 µM

Entry Cc1cc(C)nc(NS(=O)(=O)c2ccc(NC(=O)c3ccc4nc5ccccc5c(Nc5ccc(S(=O)(=O)N=C(N)N)cc5)c4c3)cc2)n1 please > 100 µM

Also Clc1cc(Cl)cc(Nc2ccc3c(OCCCN4CCOCC4)cccc3n2)c1 , if possible. 4.06 µM

How about this compound: O=C(CC/C(CC(=O)c1ccc(Cl)cc1)=N\O)Nc1cccc(Cl)c1 > 100 µM

For Nc1nc2c([nH]1)c1[nH]c3ccccc3c1c1[nH]c3ccccc3c21 then? 27.5 µM

Ok, now CCOc1ccc(Nc2nc(N)nc(N)c2N=O)cc1 > 100 µM

Follow-up entry: COc1cc(-c2cc(OC)c(OC)c3ccc(Br)cc23)c2cc(Br)ccc2c1OC 43.8 µM

Moving on to the next compound: COc1ccc(C2C(C(=O)O)=C(COC(C)=O)Oc3cc4c(cc32)OCO4)c(OC)c1 (stereo not given) > 100 µM

Lookup O=C(Nc1nnc(-c2ccccc2)o1)C(SC(=S)N1CCCC1)c1ccccc1 (stereo not given) > 100 µM

// same read-out, input: CC1(O)CC2C(CC1SCc1ccccc1)C2(C)C (stereo not given) 43.4 µM

Next compound up: Nc1ccc2c3c1cccc3c(=O)n1c3ccc(Cc4ccc5c(c4)nc4c6ccc(N)c7cccc(c(=O)n54)c76)cc3nc21 > 100 µM

Another: CCOC(=O)CCC(NC(=O)c1ccc(NCc2ccc3nc(OC)c(OC)nc3c2)c2ccccc12)C(=O)OCC (stereo not given) > 100 µM

Okay, and CN(Cc1ccccc1)C(=S)S ? > 100 µM

// same read-out, input: COc1ccc(/C(C#N)=C2/O/C(=N/N)C(c3ccc(OC)c(OC)c3)C2=O)cc1OC (stereo not given) > 100 µM

Param item: O=C(NCCOC(=O)CCCCCCCCC(=O)OCCNC(=O)NC(=O)c1cn(Cc2ccccc2)c(=O)[nH]c1=O)NC(=O)c1cn(Cc2ccccc2)c(=O)[nH]c1=O > 100 µM

Do the same for CCOC1OC(C)(C=C(C#N)C#N)CCC1C (stereo not given) please > 100 µM

What do you have for CCOC(=O)CCC(C(=O)OCC)n1nnc2cc(Nc3c(C)[n+]([O-])c4cc(Cl)ccc4[n+]3[O-])ccc21 (stereo not given) ? > 100 µM

FYI, the data here is from PubChem BioAssay (NCI).
